# Study target: T1, human bone morphogenic protein 2 (BMP2) (human, UniProt P12643 283-396, Disulfide-linked homodimer of this chain (non-reduced band of about 36 kDa, monomers of 17-18 kDa); one copy is given.)
# T1 construct: Bought recombinant human BMP2 (R&D Systems or Medtronic); also called recombinant human BMP2
# T1 sequence (P12643 283-396 limits assumed): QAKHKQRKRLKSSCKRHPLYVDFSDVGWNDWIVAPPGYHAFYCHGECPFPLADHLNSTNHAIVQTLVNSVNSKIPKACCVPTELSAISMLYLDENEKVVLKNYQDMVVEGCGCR
# Assay explanation: SPR (Biacore); mAb captured via anti-human Fc, BMP flowed at 10 nM
Measurement name: kon (M⁻¹ s⁻¹)

16B7 human monoclonal antibody (antibody, V domains shown, Human IgG from a HuMAb/KM mouse hybridoma) VH: QVQLVESGGGVVQPGRSLRLSCAASGFTFSNYGIHWVRQAPGKGLEWVAVIWYDGSHKYYADSMKGRFTISRDNSKNTLDLQMNSLRAEDTAVYYCARGSSSWYFDLWGRGTLVTVSS VL: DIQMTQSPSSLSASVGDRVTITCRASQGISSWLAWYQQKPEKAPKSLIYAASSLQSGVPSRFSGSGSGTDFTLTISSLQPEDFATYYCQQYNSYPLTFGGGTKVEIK :: 3.7e+06
12E3 human monoclonal antibody (antibody, V domains shown, Human IgG from a HuMAb/KM mouse hybridoma) VH: QVQLVESGGGVVQPGRSLRLSCAASGFTFSSYGMHWVRQAPGKGLEWVAVIWDDGRKKYYADSVKGRFTISRDNSKNTLYLQMNSLRAEDTAVYYCAREPAGVWGMDVWGQGTTVTVSS VL: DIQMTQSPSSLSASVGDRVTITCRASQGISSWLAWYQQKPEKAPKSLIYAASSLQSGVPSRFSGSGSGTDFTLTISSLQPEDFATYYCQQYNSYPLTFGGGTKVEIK :: 3.39e+06
10F6 human monoclonal antibody (antibody, V domains shown, Human IgG from a HuMAb/KM mouse hybridoma) VH: QVQLVESGGGVVQPGRSLRLSCAASGFTFRSYGIHWVRQAPGKGLEWVAVIWYDGSHKYYADSVKGRFTISRDNSKNTLDLQMNSLRAEDTAVYYCVRGSSNWYFDYWGQGTLVTVSS VL: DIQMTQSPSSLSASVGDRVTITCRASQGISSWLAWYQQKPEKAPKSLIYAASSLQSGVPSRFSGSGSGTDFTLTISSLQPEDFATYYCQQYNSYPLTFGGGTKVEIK :: 2.04e+06
